# measurement_target: Human GPR120 short form (Homo sapiens, UniProt Q5NUL3)
# Construct: expressed in transfected cells
# assay_info: Human GPR120 calcium flux assay, Procedure Calcium B (4200 cells/well)
# Type: cell-based
# Procedure: Human GPR120 in Calcium Flux Assay These cells are first loaded with the Ca^+2 sensitive dye, Fluo-4 NW. Upon stimulation, intracellular released Ca^+2 can bind to the dye and alter its fluorescence intensity. This increase in fluorescence signal, and thus the flux in intracellular [Ca^2+], is detected and quantitated by fluorescence imaging using a FLIPR reader. The effect of the agonist is measured as a function of concentration and used to calculate an EC50 based upon a response curve. […]
endpoint_name: pEC50
Quick note: pEC50 means taking -log10 of the concentration in moles per liter.

Below are worked cases with known answers.
>>> test_result("[2H]C([2H])([2H])c1ccc(C2=C(COc3ccc(CCC(=O)O)c(C(F)(F)F)c3)CCC2)cc1 [Compound 268-D]")
6.16
>>> test_result("Cc1cc(CCC(=O)O)ccc1OCC1=C(c2ccc(F)c(F)c2)CCC(F)(F)C1 [Compound 532]")
6.88
>>> test_result("Cc1c(CCC(=O)O)ccc(OCC2=C(c3cccs3)CCC(F)(F)C2)c1C [Compound 557]")
6.83

Problem: Fill in: pEC50 of COc1ncc(C2=C(COc3c(F)cc(CCC(=O)O)cc3F)CCC2)cc1F [Compound 224] is ___
Result: 6.55

Problem: Same question, Cc1c(CCC(=O)O)ccc(OCC2=C(c3ccc(F)c(F)c3)CCC2)c1C [Compound 117] this time
Result: 6.96

Problem: Same question, Cc1ccc(C2=C(COc3ccc(CCC(=O)O)cc3)CCC2)c(C)c1 [Compound 245] this time
Result: 5.70

###

# measurement_target: long form of human GPR120 (Homo sapiens, UniProt Q5NUL3)
# assay_info: Human GPR120 DiscoveRx PathHunter Beta-Arrestin assay, Procedure β-arrestin A
This section presents compounds with their documented EC50 values.

>>> test_result("Cc1ccc(C2=C(COc3ccc(CCC(=O)O)c(C)c3C)CC(F)(F)CC2)cc1F")
"0.136 µM"
>>> test_result("Cc1ccc(C2=C(COc3ccc(CCC(=O)O)cc3C)CC(F)(F)CC2)s1")
"0.12 µM"

Problem: Fill in: EC50 of Cc1c(CCC(=O)O)ccc(OCC2=C(c3cnn(C)c3)CCC(F)(F)C2)c1C is ___
Result: 1.66 µM

Problem: Same question, Cc1cc(CCC(=O)O)ccc1OCC1=C(c2ccco2)CCC(F)(F)C1 this time
Result: 0.358 µM

###

# measurement_target: Human GPR120 short form (Homo sapiens, UniProt Q5NUL3)
# Construct: expressed in transfected cells
# Sequence (Q5NUL3 1-361): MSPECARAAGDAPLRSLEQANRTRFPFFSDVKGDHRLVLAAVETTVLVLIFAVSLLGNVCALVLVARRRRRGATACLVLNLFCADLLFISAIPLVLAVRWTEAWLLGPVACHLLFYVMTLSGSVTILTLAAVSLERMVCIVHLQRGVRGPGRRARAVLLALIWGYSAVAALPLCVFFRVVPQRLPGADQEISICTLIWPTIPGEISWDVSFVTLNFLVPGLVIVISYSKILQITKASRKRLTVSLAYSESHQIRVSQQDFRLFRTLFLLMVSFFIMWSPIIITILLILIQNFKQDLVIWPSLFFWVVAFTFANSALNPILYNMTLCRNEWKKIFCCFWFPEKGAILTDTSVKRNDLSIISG
# assay_info: Human GPR120 calcium flux assay, Procedure Calcium B (4200 cells/well)
# Format: cell-based
# Procedure: Human GPR120 in Calcium Flux Assay These cells are first loaded with the Ca^+2 sensitive dye, Fluo-4 NW. Upon stimulation, intracellular released Ca^+2 can bind to the dye and alter its fluorescence intensity. This increase in fluorescence signal, and thus the flux in intracellular [Ca^2+], is detected and quantitated by fluorescence imaging using a FLIPR reader. The effect of the agonist is measured as a function of concentration and used to calculate an EC50 based upon a response curve. […]
endpoint_name: EC50

>>> test_result("CCCCC1=C(COc2ccc(CCC(=O)O)c(C(F)(F)F)c2)CCC1")
"1150 nM"
>>> test_result("O=C(O)CCc1cc(F)c(OCC2=C(c3ccco3)CCC(F)(F)C2)c(F)c1")
"299 nM"
>>> test_result("O=C(O)CCc1ccc(OCC2=C(C(=O)c3ccccc3)CCC2)cc1C(F)(F)F")
"1490 nM"
>>> test_result("CCCC1=C(COc2ccc(CCC(=O)O)c(C(F)(F)F)c2)CCC1")
"750 nM"
>>> test_result("O=C(O)CCc1cc(F)c(OCC2=C(c3ccco3)CCC2)c(F)c1")
"4640 nM"
>>> test_result("O=C(O)CCc1cc(F)c(OCC2=C(c3ccccc3)CCC(F)(F)C2)c(F)c1")
"192 nM"
>>> test_result("Cc1cc(OCC2=C(c3ccc(Cl)cc3)CCC2C)c(F)cc1CCC(=O)O (stereo not drawn)")
"427 nM"
>>> test_result("Cc1cccc(C2=C(COc3ccc(CCC(=O)O)c(Cl)c3)CCC2)c1")
"1630 nM"

Problem: Fill in: EC50 of O=C(O)CCc1ccc(OCC2=C(c3ccc(Cl)cc3)CCC2)c(Br)c1 is ___
Result: 21 nM

Problem: Same question, COc1cc(OCC2=C(C3CCCC3)CCC2)ccc1CCC(=O)O this time
Result: 387 nM

Problem: Same question, O=C(O)CCc1ccc(OCC2=C(C3CCCC3)CCCC2)cc1C(F)(F)F this time
Result: 1970 nM

Problem: Same question, CCc1ccc(C2=C(COc3ccc(CCC(=O)O)c(C)c3C)CCC2)cc1 this time
Result: 58 nM

Problem: Same question, Cc1ccc(C2=C(COc3ccc(CCC(=O)O)c(C)c3C)CCC2)cn1 this time
Result: 234 nM

Problem: Same question, CCc1ccc(C2=C(COc3ccc(CCC(=O)O)c(Cl)c3)CCC2)cc1 this time
Result: 2180 nM

Problem: Same question, Cc1c(CCC(=O)O)ccc(OCC2=C(c3ccc(F)cc3)CC(F)C2)c1C (stereo not drawn) this time
Result: 81 nM

Problem: Same question, O=C(O)CCc1cc(F)c(OCC2=C(C3CCC(F)(F)CC3)CCC2)c(F)c1 this time
Result: 3170 nM

Problem: Same question, O=C(O)CCc1ccc(OCC2=C(Cc3cccc(F)c3)CCC2)cc1Cl this time
Result: > 5000 nM

Problem: Same question, Cc1ccc(C2=C(COc3ccc(CCC(=O)O)c(C)c3C)CC(F)(F)C2)cc1F this time
Result: 42 nM
